target: JAK2(h) (Homo sapiens (Human))
Sequence (O60674 whole entry): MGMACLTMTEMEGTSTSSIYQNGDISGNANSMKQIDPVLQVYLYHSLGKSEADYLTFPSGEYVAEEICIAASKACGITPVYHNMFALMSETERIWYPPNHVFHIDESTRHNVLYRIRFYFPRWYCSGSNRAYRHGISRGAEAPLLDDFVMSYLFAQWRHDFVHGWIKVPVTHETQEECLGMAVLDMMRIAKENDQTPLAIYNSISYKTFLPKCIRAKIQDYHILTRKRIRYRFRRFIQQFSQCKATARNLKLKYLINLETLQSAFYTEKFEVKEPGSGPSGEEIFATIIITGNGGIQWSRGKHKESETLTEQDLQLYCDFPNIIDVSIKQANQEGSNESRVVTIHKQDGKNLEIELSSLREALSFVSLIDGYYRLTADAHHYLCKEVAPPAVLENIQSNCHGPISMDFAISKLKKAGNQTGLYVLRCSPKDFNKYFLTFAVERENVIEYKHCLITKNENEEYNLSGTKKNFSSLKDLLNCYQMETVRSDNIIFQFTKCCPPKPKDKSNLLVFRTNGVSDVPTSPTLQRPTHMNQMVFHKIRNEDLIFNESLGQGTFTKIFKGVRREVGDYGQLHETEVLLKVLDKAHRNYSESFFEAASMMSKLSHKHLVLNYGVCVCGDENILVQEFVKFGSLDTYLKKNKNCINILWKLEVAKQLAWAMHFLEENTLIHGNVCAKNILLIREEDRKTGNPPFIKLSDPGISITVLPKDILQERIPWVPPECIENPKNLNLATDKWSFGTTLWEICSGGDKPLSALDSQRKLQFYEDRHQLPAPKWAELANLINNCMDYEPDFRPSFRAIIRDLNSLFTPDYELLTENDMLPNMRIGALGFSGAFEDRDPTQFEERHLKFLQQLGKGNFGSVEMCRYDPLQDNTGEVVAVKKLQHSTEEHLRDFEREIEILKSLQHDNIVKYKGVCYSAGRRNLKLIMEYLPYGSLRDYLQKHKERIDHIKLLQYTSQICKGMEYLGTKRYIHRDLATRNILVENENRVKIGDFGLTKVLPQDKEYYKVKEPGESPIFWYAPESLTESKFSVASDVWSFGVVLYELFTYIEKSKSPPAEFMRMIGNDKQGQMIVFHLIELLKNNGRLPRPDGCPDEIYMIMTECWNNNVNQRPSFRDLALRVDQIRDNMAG
measured.property: pIC50
Please treat pIC50 as minus the base-10 logarithm of the molar concentration.

Use these answered entries as a reference point.
N#CC[C@]1(n2cc(-c3nc(-c4cc(N)[nH]n4)cn4nccc34)cn2)CC2(C[C@@H](C#N)C2)C1 (stereo partly shown)	8.52
Cn1ccc(-c2cn3nccc3c(-c3cnn([C@]4(CC#N)CC5(C[C@H](C#N)C5)C4)c3)n2)n1 (stereo partly shown)	7.09
Cn1ccc(-c2cn3nccc3c(-c3cnn(C4(CC#N)CC5(CCN(C#N)CC5)C4)c3)n2)n1	8.29

Next, consider the following compound.
Any idea what pIC50 came out for Cn1nc(-c2cn3nccc3c(-c3cnn([C@]4(CC#N)CC5(C[C@H](C#N)C5)C4)c3)n2)cc1N (stereo partly shown) on JAK2(h) (Homo sapiens (Human))?
8.22
